Hey, just so you know, these numbers are from patent US20200207859A1.

Catalogue of binders with associated cell killing Span, ARP-1 (MM) cells
system: CD74 (human), P04233
Sequence (P04233 whole entry): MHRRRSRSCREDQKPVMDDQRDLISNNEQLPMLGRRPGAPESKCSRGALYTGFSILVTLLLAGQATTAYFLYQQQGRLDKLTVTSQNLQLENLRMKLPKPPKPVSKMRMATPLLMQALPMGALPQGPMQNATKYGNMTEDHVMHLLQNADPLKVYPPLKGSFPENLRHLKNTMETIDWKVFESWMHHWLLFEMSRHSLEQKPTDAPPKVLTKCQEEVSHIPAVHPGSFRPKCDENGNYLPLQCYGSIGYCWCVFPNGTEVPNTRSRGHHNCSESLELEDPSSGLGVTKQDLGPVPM
run_description: cell-based or functional assay
metric: cell killing Span, ARP-1 (MM) cells

- binder: "Conjugate F (anti-CD74 IgG-PEG4-MMAE conjugate) (antibody, V domains shown, here or on the partner: modified amino acid residue 30 (pAMF) according to Example 2, position not stated for this conjugate, linked to PEG4-MMAE) VH: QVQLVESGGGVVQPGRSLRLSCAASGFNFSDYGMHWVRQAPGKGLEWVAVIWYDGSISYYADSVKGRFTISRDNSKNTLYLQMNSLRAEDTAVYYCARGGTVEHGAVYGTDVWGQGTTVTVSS VL: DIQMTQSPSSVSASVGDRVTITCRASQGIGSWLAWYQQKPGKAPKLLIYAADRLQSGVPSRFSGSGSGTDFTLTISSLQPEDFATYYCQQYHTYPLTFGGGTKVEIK"
  observed_measurement: "93%"
- binder: "Conjugate C (anti-CD74 IgG-val-cit-PAB-hemiasterlin conjugate) (antibody, V domains shown, here or on the partner: modified amino acid residue 30 (pAMF) according to Example 2, position not stated for this conjugate, linked to val-cit-PAB-hemiasterlin) VH: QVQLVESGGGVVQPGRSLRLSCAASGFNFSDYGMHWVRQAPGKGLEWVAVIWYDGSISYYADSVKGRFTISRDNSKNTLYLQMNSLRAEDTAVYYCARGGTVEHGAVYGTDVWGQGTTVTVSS VL: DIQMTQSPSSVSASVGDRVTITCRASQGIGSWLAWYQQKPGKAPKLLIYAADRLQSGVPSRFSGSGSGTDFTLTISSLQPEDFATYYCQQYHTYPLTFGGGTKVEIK"
  observed_measurement: "87%"
- binder: "Conjugate A (anti-CD74 IgG-DBCO-PEG4-maytansine conjugate) (antibody, V domains shown, here or on the partner: para-azidomethyl-L-phenylalanine (pAMF, residue 30) at heavy chain EU position 404 (constant region, outside SEQ ID NO 236), linked to DBCO-PEG4-maytansine) VH: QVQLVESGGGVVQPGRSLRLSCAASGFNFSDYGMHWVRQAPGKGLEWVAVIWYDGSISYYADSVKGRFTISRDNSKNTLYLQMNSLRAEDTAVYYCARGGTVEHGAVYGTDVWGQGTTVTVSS VL: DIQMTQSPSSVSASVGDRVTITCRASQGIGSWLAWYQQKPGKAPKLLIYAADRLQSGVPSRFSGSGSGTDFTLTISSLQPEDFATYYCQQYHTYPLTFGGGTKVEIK"
  observed_measurement: "77%"
- binder: "Conjugate B (anti-CD74 IgG-PEG4-maytansine conjugate) (antibody, V domains shown, here or on the partner: modified amino acid residue 30 (pAMF) according to Example 2, position not stated for this conjugate, linked to a PEG4-maytansine linker-payload) VH: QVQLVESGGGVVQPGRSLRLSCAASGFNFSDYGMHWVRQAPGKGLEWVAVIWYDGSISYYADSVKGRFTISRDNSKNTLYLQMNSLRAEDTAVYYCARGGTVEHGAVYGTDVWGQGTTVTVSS VL: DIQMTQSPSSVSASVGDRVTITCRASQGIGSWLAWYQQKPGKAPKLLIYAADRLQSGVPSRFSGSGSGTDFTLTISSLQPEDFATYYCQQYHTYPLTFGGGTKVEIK"
  observed_measurement: "82%"
